# ASSAY_OVERVIEW: Half life in MDR1A knockout Sprague-Dawley rat at 5 mg/kg, po by LC-MS/MS analysis
# Type: ADME, organism-based
# Set-up: dose 5 mg/kg, route oral
# MEASUREMENT_PARAMETERS: in vivo
OUTCOME_MEASURE: half-life (h)
Express it in h; write the number only.

Field request: half-life | item: CC(=O)O[C@H]1C(=O)[C@@]2(C)[C@H]([C@H](OC(=O)c3ccccc3)[C@]3(O)C[C@H](OC(=O)[C@H](O)[C@@H](NC(=O)c4ccccc4)c4ccccc4)C(C)=C1C3(C)C)[C@]1(OC(C)=O)CO[C@@H]1C[C@@H]2O
10
